Listed here are sequences together with their documented apparent KD of K4 kissing-loop reporter.
- System: K4 kissing-loop RNA reporter;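 also: bound reporter read as fluorescence of individual clusters on recovered sequencing chips by microscopy, with normalized cluster intensities fitted with a binding model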
- test protocol: apparent KD of K4 kissing-loop reporter; higher = weaker reporter binding
- protocol conditions: Eterna round: R107; input ligand: FMN 200 uM

sequence code | apparent KD of K4 kissing-loop reporter
AGUGUUAGGUUAGAUACCAGCCGUCUGUGGAUAAUCCUCAGACCGCCAGUGAUGUUGGCAGGCCCUUGGCAGCUAACAGGACAGA [Mavebius] | 275 nM
GUUACGCAUGGAAGGAGCGCAGGCUCAACAAAUAGCUCAGUGAUGUUGAGCAUAUUAAAACUGCAGGUAGGUCGCCAUGUGUAAC [Ex Arginine B K4 23] | 651 nM
UGAUAGGACAGAAGGAGCGGAAGUGAUGUUUCCAAAAGGCUAAGGUGUCAAAAGACACCCUUCCAGGUAGGUCGCUGUCCUAUCU | 237 nM
GCCGUAGAUUGAAGGAGCGGCAUUAACGAUGUUCUGGUAGUGAUGUUACCUCAGCAGACAUGCCAGGUAGGUCGCAAUCUACGGC | 72.5 nM
AAAACUCAUGGCUUAUAUCCGUGUCUCGAAGGAGCGUACAGCGGUACAGGUAGGUCGCGAGACAUGAGUGAUGUUCAUGUGUAAA [KL-XArg-A6 #analogue] | 109 nM
UUGUUUGGUUGAGAGGUUGGGCGAAAUGAUACCAGUAUAUAAGAAUACCCUUGGCAGCAUAAGAAAGAUAUAGUGAUGUUGUAUA [SSTheophA.L] | 597 nM
AUUUUAUUAACUGAUACCAGACUUAAUGAAUUGUAAAUUACUAGUGAUGUUAGUGAUUCUGUCCCUUGGCAGCAGUAUUUAUUAA [JR_ExcTheophyB_Sub012] | 129 nM
UGAUACCAGACGGCCGCCACUCCCGUAAGUCAAAGACUUACCAAGAGAAUCGUCCAGUGAUGUUGGAGGACCGGGUCUGGUAUCU [FiskerMod 8 - Jieux - Exclusion - Tryptophan B] | 922 nM
UUUUUGGAGAAUUAUAGUGAUGUUAUGAAGGAGGAUAUCUGGAGAUGGAGAAGGCCUAGUGGCUCAGCCCUCGAGGGUGGGUGGG [ExFMNA.aC] | 646 nM
AUUCUGUUUUUGAUGUUUUUUGUAUAAUGGCAGGAUAUCGUAGAAGCGAGAAGGGCUUUUAUGCGUUAUGAGUGAUGUUUGUAGG [ttytewvmullin] | 298 nM
CCUAGUCGGAUACUCAAUCCAAUGCGAGAUACCAGCGGUCUUACGCGCCCUUGGCAGCUCAUAAUGAUGAACCAGUGAUGUUGGG [theeternabot_sameState_KL_Theo_A_40] | 423 nM
UCGUCUGUGUGAGGAUAUCCAAGCGAGCUGCGUAAAGGCGCGGCGUUUGGAGUGAUGUUCCAGGCAGGAGAAGGCGCACGGGCUU [Maleisar] | 231 nM
AGUGUUAGGUUAGAUACCAGCCGUCUAUGGAUAAUCCUCAGACCGCCAGUGAUGUUGGCAGGCCCUUGGCAGCUAACAGAACAGA [Reinonor] | 202 nM
UGAUACCAGACGGCCGCCACUCCUGCAGUCAAAGACUGCUAAGGAAUAUUCGUCCAGUGAUGUUGGAGGACCGGGUCUGGUAUCU [TrypBX 12 #SwitchBubble #Palindromic #StaticStem] | 1370 nM
UGUCAUUGGUCGGCCGCCACUUCGGUCAAAGACCAUAAAGAGUGAUGUUCUUAAGACGAAAGUCGAAGGACCGGGACCGAUGACU [TrypBS 11 #SwitchBubble #K4Middle] | 1110 nM
AACUGUCAAGGCCGACAUUACUGAGGUGAUACCAGCAUCGAAAGAUGCCCUUGGCAGCACCAACUUGCAGUGAUGUUGCAAGUAA [BrourdMod 14 - Jieux - Exclusion - Theophylline A] | 191 nM
CCUAUCUCAUACGAUACCAGUCCGAGUGAUGUUCGAAAAUAAAUAAAUUUGCCAUAUAAUGACCCUUGGCAGCGUAUGGGAUAGG [Ex Theophylline B K4 11] | 354 nM
GUCAGACCGGGACUCCAGUGAUGUUGGAGGCAGGAUAUCCAGUCGAGGAGAAGGGCCAGGGAUAUCGAGCUGCUCGGUUUGUAGU [Xexezaes] | 72.4 nM
UUUAUUAAGACGGCCGCCACUGAUUCAGAGUGAUGUUCUGAUAUUUUUUUAUAUAAUAAUAACAGCAGGACCGGGUCAAUUAUUA [JR_SSTryptoB_Sub013] | 225 nM
AACCGAGGUAAUCCACAAUGAUUAGAAGAUACCAGAUAUAUAAAUAUCCCUUGGCAGCUUUGAAUGAGUGAUGUUCAUUUGUCAU [KL-SSTheo-A11] | 126 nM
UGAUAGGAGAGAAGGAGCGGGAGUGAUGUUCCCAAAGAUUGGUCUAGCAAAGCUGGACCCUCCCAGGUAGGUCGCUCUCCUAUCU [KL-XARG-B16] | 382 nM
GAAUGAAAUAUCUGGCCCUAUCAGAAUUGGAAGGAUAUGACGGUCAUCAGAAGGUCCAACUCGUAGUGAUGUUGCGGGUUUUAAA [theeternabot_exclusion_KL_FMN_A_21] | 91.2 nM
AGGCACGAGCAAGGAUAUCGAGUAGAGUGAUGUUCUGCCUGGGUUGGCUCGCAAGAGCCUUCUCAGCGAGAAGGUGCUCGUGCCU [#2 Same State - FMN A Attempt #18 (HarryS)] | 176 nM

###

- Tested on: MS2 coat protein
- test protocol: apparent KD of MS2 coat protein; designed switch direction (-1 OFF switch, 1 ON switch): 1; higher = weaker reporter binding
- protocol conditions: Eterna round: R95; input ligand: microRNA oligo, concentration not stated
Class class 1: apparent KD of MS2 coat protein at least 30 nM. Class class 0: apparent KD of MS2 coat protein below 30 nM.

sequence code | class assignment
GGUCCAGCCUGAGCUGGACUACAGCAUGUACAUGAGGAUCACCCAUGUCAUGUACAUGCUUUUUGUUUGUCUUAAAA [Sensorship 10 - Jieux - Sensor for hsa-mir-208a] (puzzle: Sensor for hsa-mir-208a) | class 1
GUGUGUUGCGGGCAGGAUAUGUAUUUGAGUACAUGAGGAUCACCCAUGUGCGCCUGUUUCAGGCGACAGAAGGGCCUAUCGCGAC [JL-ss2-3.27 ViennaUCT mod] (puzzle: Same State 2) | class 1
AAAGAACAUGAGGAUCACCCAUGUGGAAGAGGCACAGGAUAUCACCUCGCACGUGCGAGGUGAGAAGGGUGAUGGU [Zalecema] (puzzle: Same State 1) | class 1
AGUCCAGCGAAAGCUGGACAAAAGUAUGUACAUGAGGAUCACCCAUGUUCAUGUACAAGCUUUUUGCUCGUCUUAAA [JL mod - D95 - 10] (puzzle: Sensor for hsa-mir-208a) | class 0
GAAGGAUGAGCGUAGGAUAUAGGAGGAGUGACAUGAGGAUCACCCAUGUGGUAUGAGGGAGGAUUCUAGAAGGACGCGGUAGAAG [JR_SS2_Sub065] (puzzle: Same State 2) | class 1
GUACUACAUGAGGAUCACCCAUGUUACCUUCACGGAGGAUAUAGGAAAUGAGGUGAGAUGCUAGAAGGCCGAGGAA [Candy Rainbow 4] (puzzle: Same State 1) | class 1
AGGUGGUGUGGAAAGGAUAUACGGUUGAGGACAUGAGGAUCACCCAUGUGGUAGAGGACGUAAGGGUAGAAGGUUCGGGAUUGGU [JR_SS@_Sub022] (puzzle: Same State 2) | class 1
CGAGCCGGCACUGAGGAUAUUCAUAUUUAAACAUGAGGAUCACCCAUGUAGGCCAGAAGGCCUUGGGAGAAGGCAGGUCGGCUCC [salish99_ss2_r3_080] (puzzle: Same State 2) | class 1
AUAAGUUUGAUGCUCGUCUCUCCGUACAAACAUGAGGAUCACCCAUGUGGUCGGGUAGUAGCCCGGCCAGUAUGGCC [Ribiesreri] (puzzle: Sensor for hsa-mir-208a) | class 0
UAAACUUCUUUUAGUGUAAUGCAUGUGAUACAUGAGGAUCACCCAUGUUUUGGUUCGUUUUAUUUUGUUCGUCUUAA [JR_SHM208A_Sub078] (puzzle: Sensor for hsa-mir-208a) | class 1
UCUUGGUUUUUGCUCGUUUUUUGUGUUGAACAUGAGGAUCACCCAUGUAUUGUACGGUCCAAUUUAAUAAUAAUCCG [JMF 64] (puzzle: Sensor for hsa-mir-208a) | class 0
ACAAGCUUUUUAGGAGAGAAAGGUGGGAUACAUGAGGAUCACCCAUGUAUGGUAGUUAAUAGUGGACCUCGUCUUAU [JR_SHM208A_Sub082] (puzzle: Sensor for hsa-mir-208a) | class 0
CUGCUACAUGAGGAUCACCCAUGUUGGAGUGAUGCAGGAUAUGUGUGACCAGAAGAUGAAACAGAAGGGCAAAGAA [JR_SS!_Sub004] (puzzle: Same State 1) | class 1
AGGAAGGAGACUGAGGAUAUCGUUGAGAGGACAUGAGGAUCACCCAUGUGUAUAGGAUUGGAGAACGAGAAGGCAGAGGAGUGGG [JR_SS2_Sub047] (puzzle: Same State 2) | class 1
UGCUAUUGUAUAUUGGUGCAAGCUUUUUGACAUGAGGAUCACCCAUGUACUCGUCAUUAGCGCAGUCCGUAGACUGC (puzzle: Sensor for hsa-mir-208a) | class 0
UAGACAAGCUUUAUGUUCUUCCUUUUCCUACAUGAGGAUCACCCAUGUAGUCUGUCGAUUGUGAGUGUAGUUGAGAU [JR_SHM208A_Sub025] (puzzle: Sensor for hsa-mir-208a) | class 0
AUUUAACAUGAGGAUCACCCAUGUCAACAAAGUCGAGGAUAUGGGCAAAUAAAAUAAGAACCAGAAGGCGAAUAAU [salish99_ss1_r3_070] (puzzle: Same State 1) | class 1
CGGCGCUGUCGAGAGGAUAUGCGGUGAUGGACAUGAGGAUCACCCAUGUUAGCGAUAGCAUCACGGUAGAAGGCUCUACGGCUGC [Soteed Omei mod 19] (puzzle: Same State 2) | class 0
GCGCAGCUGGGUGAGGAUAUCGGUGGUAAAACAUGAGGAUCACCCAUGUCCGGAGCUCGGACUUCCGAGAAGGCACCCGGCUGCA [Erisais] (puzzle: Same State 2) | class 0
UAGUACAUGCUUUUUGUCUGUCUUAGAUCACAUGAGGAUCACCCAUGUUUGGUGAAAGUUAUAUAGUUUAUGACUAU [JR_SHM208A_Sub059] (puzzle: Sensor for hsa-mir-208a) | class 1
